- TARGET: human recombinant PDE5 (Homo sapiens, UniProt O76074)
- EXPERIMENTAL DETAILS: Inhibitory effect on cGMP-PDE (PDE5 IC50, one-step assay)
- CONDITIONS: in vitro
- Experimental: The compounds of structural formula (I) were tested for an ability to inhibit PDE5. The ability of a compound to inhibit PDE5 activity is related to the IC50 value for the compound, i.e., the concentration of inhibitor required for 50% inhibition of enzyme activity. The IC50 value for compounds of structural formula (I) were determined using recombinant human PDE5. cGMP-PDE activity of compounds of the present invention was measured using a one-step assay adapted from Wells et al., Biochim. Biophys. […]
Could you mark each record criterion met if its IC50 falls strictly under 0.001 µM, and criterion not met if it equals or exceeds it?

Field: example entries. Status: answers known.
{"columns": ["MOLECULE", "CLASS LABEL"],
 "data": [
  ["O=C1NNC(=O)N2[C@H](c3ccc4c(c3)OCO4)c3[nH]c4ccccc4c3C[C@H]12 [Example 3]", "criterion not met"],
  ["CN1C(=O)[C@H]2Cc3c([nH]c4ccccc34)C(c3ccc4c(c3)OCO4)N2C(=O)C1(C)C (mixture of isomers) [Example 1]", "criterion not met"],
  ["O=C1N[C@H](CO)C(=O)N2[C@H](c3ccc4c(c3)OCO4)c3[nH]c4ccccc4c3C[C@H]12 [Example 8]", "criterion not met"],
  ["NC(=O)CC[C@@H]1NC(=O)[C@H]2Cc3c([nH]c4ccccc34)[C@@H](c3ccc4c(c3)OCO4)N2C1=O [Example 2]", "criterion not met"],
  ["CC(C)OC(=O)CC[C@@H]1NC(=O)[C@H]2Cc3c([nH]c4ccccc34)[C@@H](c3ccc4c(c3)OCO4)N2C1=O [Example 7]", "criterion met"],
  ["CC(C)(C)OC(=O)CC[C@@H]1NC(=O)[C@H]2Cc3c([nH]c4ccccc34)[C@@H](c3ccc4c(c3)OCO4)N2C1=O [Example 5]", "criterion met"]
]}

QUERY: Hello, I'm reviewing records and need to know if IC50 of CN1CCC(=O)N2[C@H](c3ccc4c(c3)OCO4)c3[nH]c4ccccc4c3C[C@H]2C1=O [Example 4] is below 0.001 µM. Could you check?
RESULT: criterion not met

* * *

Below, each entry is listed with its recorded melting point.

Here's what some known entries look like.
{"columns": ["MOLECULE", "READOUT VALUE"],
 "data": [
  ["CN1C(=O)[C@H]2Cc3c([nH]c4ccccc34)C(c3ccc4c(c3)OCO4)N2C(=O)C1(C)C (mixture of isomers) [Example 1]", "225 to 235 °C"],
  ["O=C1N[C@H](CO)C(=O)N2[C@H](c3ccc4c(c3)OCO4)c3[nH]c4ccccc4c3C[C@H]12 [Example 8]", "194 to 200 °C"],
  ["CN1CCC(=O)N2[C@H](c3ccc4c(c3)OCO4)c3[nH]c4ccccc4c3C[C@H]2C1=O [Example 4]", "179 to 182 °C"],
  ["O=C1NNC(=O)N2[C@H](c3ccc4c(c3)OCO4)c3[nH]c4ccccc4c3C[C@H]12 [Example 3]", "188 to 194 °C"],
  ["NC(=O)CC[C@@H]1NC(=O)[C@H]2Cc3c([nH]c4ccccc34)[C@@H](c3ccc4c(c3)OCO4)N2C1=O [Example 2]", "78 to 82 °C"]
]}

Would you kindly look at the next entry?
QUERY: Please give measured melting point of the following entry: CC(C)(C)OC(=O)CC[C@@H]1NC(=O)[C@H]2Cc3c([nH]c4ccccc34)[C@@H](c3ccc4c(c3)OCO4)N2C1=O [Example 5]
RESULT: 222 to 227 °C

From: patent US7034027B2
